The reported numbers originate from the RNAGym collection of RNA variant scans (doi:10.1073/pnas.2313332121).

B1: TPR 5TU (parent)
chain: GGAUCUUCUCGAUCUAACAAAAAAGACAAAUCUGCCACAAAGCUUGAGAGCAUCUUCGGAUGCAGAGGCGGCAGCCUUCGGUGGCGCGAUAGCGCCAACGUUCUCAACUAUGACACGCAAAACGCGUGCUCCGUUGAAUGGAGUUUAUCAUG

- Variants of: B1
- experiment: polymerase ribozyme fitness, log enrichment relative to wild type (log ratio); higher = more active; in vitro selection for triplet polymerase activity
Fewer inactive variants are shown than the library holds.
Would you mind telling me the reported polymerase ribozyme fitness (log ratio) of each entry?
One number for each entry.

Field: example entries. Status: answers known.
| mutation key | polymerase ribozyme fitness (log ratio) |
| --- | --- |
| A17G C129G | -3.57 |
| A19C C36U G59U A60G C93U U104G | -3.23 |
| A106U U135A A150U | -1.22 |
| G84C G126C | -1.54 |

Hi team, please reply with polymerase ribozyme fitness (log ratio) for each item in this list.
1. C85U A89U A106G C125G
2. G48C C85U U102G U104A C118U C125A
3. G94A C131U

OUTPUT:
[-1.15, -4.14, 0.309]

Hi team, please reply with polymerase ribozyme fitness (log ratio) for each item in this list.
1. C36A U82G U135C U145G G152U
2. A22U A106G
3. A39G C96U C125A
4. A24U G50U U56G G58U C76U A122G
5. A60G G67U G86A
6. G126A C132U
7. A3U A17C A47U C93U U104A
8. U4G C10U G83U A98U C105U

OUTPUT:
-3.98
1.21
-2.58
-4.1
-4.13
-0.105
-1.38
-0.982

Hi team, please reply with polymerase ribozyme fitness (log ratio) for each item in this list.
1. G68U G136A
2. A41C A91G C118G
3. C87U U102C A147C
4. G83A
5. A20G G46U G92U
6. G80U G81A A142G
7. A40C C76U

OUTPUT:
-3.9
-3.64
-2.24
-0.336
-0.107
-1.49
0.0931

Hi team, please reply with polymerase ribozyme fitness (log ratio) for each item in this list.
1. C93A C118G
2. C35U G133U

OUTPUT:
-3.44
-3.79
